target or system: GLUT9 (Homo sapiens, UniProt Q9NRM0)
Construct: gene SLC2A9; full length human SLC2A9, N-terminal twin strep and FLAG tag
protocol text: cryo-EM structure ([…] Å), MST Kd; patch clamp transport current
Type: binding
pKd: −log10 of the molar value.
observable: pKd

1. O=c1[nH]c(=O)c2[nH]c(=O)[nH]c2[nH]1 [UA, urate] = 3.64

---

target or system: GLUT9 (Homo sapiens, UniProt Q9NRM0, N333A)
Construct: full length human SLC2A9, N-terminal twin strep and FLAG tag
protocol text: MST with purified protein
observable: Kd (µM)

1) O=c1[nH]c(=O)c2[nH]c(=O)[nH]c2[nH]1 [UA, urate] = 472

---

target or system: GLUT9 (Homo sapiens, UniProt Q9NRM0, C427A)
Construct: full length human SLC2A9, N-terminal twin strep and FLAG tag
Sequence (Q9NRM0 1-540 C427A): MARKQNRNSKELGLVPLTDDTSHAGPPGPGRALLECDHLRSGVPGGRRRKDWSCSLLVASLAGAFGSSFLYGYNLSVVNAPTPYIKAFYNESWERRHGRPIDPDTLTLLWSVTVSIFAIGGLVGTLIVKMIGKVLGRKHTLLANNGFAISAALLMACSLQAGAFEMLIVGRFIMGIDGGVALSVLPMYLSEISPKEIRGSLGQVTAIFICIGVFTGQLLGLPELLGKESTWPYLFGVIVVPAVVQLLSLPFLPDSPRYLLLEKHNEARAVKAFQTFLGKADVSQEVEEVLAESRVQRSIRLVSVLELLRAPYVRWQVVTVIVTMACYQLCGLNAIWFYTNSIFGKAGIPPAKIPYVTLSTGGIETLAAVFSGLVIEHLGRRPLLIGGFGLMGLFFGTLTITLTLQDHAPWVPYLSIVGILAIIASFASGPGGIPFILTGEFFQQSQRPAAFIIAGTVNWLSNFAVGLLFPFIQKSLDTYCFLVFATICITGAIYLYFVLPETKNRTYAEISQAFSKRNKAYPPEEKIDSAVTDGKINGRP
protocol text: MST with purified protein
pKd: −log10 of the molar value.
observable: pKd

1. O=c1cc(-c2ccc(O)cc2)oc2cc(O)cc(O)c12 = 6.00

Origin of values: paper PMC11169512
